Taken from ChEMBL document CHEMBL1126871.

target_entity: UniProt P06536
Sequence (whole entry): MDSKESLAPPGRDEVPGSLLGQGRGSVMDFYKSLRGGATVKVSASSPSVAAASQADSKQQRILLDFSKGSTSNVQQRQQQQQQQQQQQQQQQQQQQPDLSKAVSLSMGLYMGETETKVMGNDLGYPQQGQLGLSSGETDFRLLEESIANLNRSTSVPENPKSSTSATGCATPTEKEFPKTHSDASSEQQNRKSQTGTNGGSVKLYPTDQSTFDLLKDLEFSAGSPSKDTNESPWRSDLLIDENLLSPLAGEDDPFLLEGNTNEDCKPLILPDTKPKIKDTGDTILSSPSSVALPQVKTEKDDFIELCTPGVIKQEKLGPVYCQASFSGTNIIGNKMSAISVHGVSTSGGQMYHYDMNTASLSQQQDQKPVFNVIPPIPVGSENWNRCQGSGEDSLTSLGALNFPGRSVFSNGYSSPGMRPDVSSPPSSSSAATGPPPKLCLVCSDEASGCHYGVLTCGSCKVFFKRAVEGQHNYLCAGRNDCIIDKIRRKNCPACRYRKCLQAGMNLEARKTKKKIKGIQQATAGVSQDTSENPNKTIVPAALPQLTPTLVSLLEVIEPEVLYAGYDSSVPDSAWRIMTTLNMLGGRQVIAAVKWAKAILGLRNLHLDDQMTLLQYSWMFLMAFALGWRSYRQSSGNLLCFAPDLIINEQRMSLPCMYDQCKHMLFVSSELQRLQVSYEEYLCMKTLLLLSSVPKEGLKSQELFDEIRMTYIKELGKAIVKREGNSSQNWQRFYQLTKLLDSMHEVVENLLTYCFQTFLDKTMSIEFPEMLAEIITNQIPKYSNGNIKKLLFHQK
run_description: In vivo glucocorticoid profile, depression of thymus weight in rat at 50 mg/kg peroral dose
Format: functional, organism-based
Design: dose 50 mg/kg
measured_metric: Change (%)
Reply with just the number (in %).

structure_notation | Change (%)
CCCN1C(=O)N(CCC)C(=O)C2(CC=C3[C@H](CCC4=Cc5c(cnn5-c5ccc(F)cc5)C[C@@]43C)O2)C1=O | 0
C=CCN1C(=O)N(CC=C)C(=O)C2(CC=C3[C@H](CCC4=Cc5c(cnn5-c5ccc(F)cc5)C[C@@]43C)O2)C1=O | -34
C[C@]12Cc3cnn(-c4ccccc4)c3C=C1CC[C@@H]1OC3(CC=C12)C(=O)NC(=O)NC3=O | -34

Attention now turns to another entry.
Query: I would be grateful if you could share the reported Change for CC(C)N1C(=O)N(C(C)C)C(=O)C2(CC=C3[C@H](CCC4=Cc5c(cnn5-c5ccc(F)cc5)C[C@@]43C)O2)C1=O .
Result: 0

* * *

Parameter: Weight gain. Scope: all listed entries.
target_entity: Glucocorticoid receptor (Rattus norvegicus) (UniProt P06536)
run_description: In vivo glucocorticoid profile, depression of body weight gain without altered food consumption in rat at 5 mg/kg peroral dose
Format: functional, organism-based
Design: dose 5 mg/kg

These recorded examples may help you get a feel for the data.
compound | target_entity | Weight gain
C#CCN1C(=O)N(CC#C)C(=O)C2(CC=C3[C@H](CCC4=Cc5c(cnn5-c5ccc(F)cc5)C[C@@]43C)O2)C1=O | Glucocorticoid receptor (Rattus norvegicus) (UniProt P06536) | 0
CCOC(=O)C1(C(=O)OCC)CCC=C2[C@@H]1CCC1=Cc3c(cnn3-c3ccc(F)cc3)C[C@@]12C | Glucocorticoid receptor (Rattus norvegicus) (UniProt P06536) | 0
CN1C(=O)N(C)C(=O)C2(CC=C3[C@H](CCC4=Cc5c(cnn5-c5ccc(F)cc5)C[C@@]43C)O2)C1=O (stereo in doubt; 12a) | Glucocorticoid receptor (Rattus norvegicus) (UniProt P06536) | -236
C[C@]12Cc3cnn(-c4ccccc4)c3C=C1CC[C@@H]1OC3(CC=C12)C(=O)c1ccccc1C3=O | Glucocorticoid receptor (Rattus norvegicus) (UniProt P06536) | -62
C#C[C@]1(O)CCC2[C@@H]3CCC4=Cc5c(cnn5-c5ccc(F)cc5)C[C@]4(C)C3=CC[C@@]21C (some centres not stated) | Glucocorticoid receptor (Rattus norvegicus) (UniProt P06536) | -145
C[C@]12Cc3cnn(-c4ccc(F)cc4)c3C=C1CC[C@@H]1OC3(CC=C12)C(=O)c1ccccc1C3=O | Glucocorticoid receptor (Rattus norvegicus) (UniProt P06536) | -224

Query: I would be grateful if you could share the reported Weight gain for C[C@H]1C[C@@H]2[C@H]([C@@H](O)C[C@@]3(C)[C@H]2CC[C@]3(O)C(=O)CO)[C@@]2(C)C=CC(=O)C=C12 .
Result: -79

* * *

target_entity: Glucocorticoid receptor (Rattus norvegicus)
run_description: In vivo glucocorticoid profile, depression of adrenal weight in rat at 50 mg/kg peroral dose
Type: functional, organism-based
Design: dose 50 mg/kg
measured_metric: Change (%)
Reply with just the number (in %).

These recorded examples may help you get a feel for the data.
structure_notation | Change, %
CCCN1C(=O)N(CCC)C(=O)C2(CC=C3[C@H](CCC4=Cc5c(cnn5-c5ccc(F)cc5)C[C@@]43C)O2)C1=O | 0
C[C@]12Cc3cnn(-c4ccccc4)c3C=C1CC[C@@H]1OC3(CC=C12)C(=O)NC(=O)NC3=O | 0

Query: I would be grateful if you could share the reported Change for CC(C)N1C(=O)N(C(C)C)C(=O)C2(CC=C3[C@H](CCC4=Cc5c(cnn5-c5ccc(F)cc5)C[C@@]43C)O2)C1=O .
Result: 0

Query: I would be grateful if you could share the reported Change for C=CCN1C(=O)N(CC=C)C(=O)C2(CC=C3[C@H](CCC4=Cc5c(cnn5-c5ccc(F)cc5)C[C@@]43C)O2)C1=O .
Result: -37

* * *

target_entity: Glucocorticoid receptor (Rattus norvegicus)
run_description: In vivo glucocorticoid profile, depression of thymus weight in rat at 100 mg/kg peroral dose
Assay type: functional, organism-based
Set-up: dose 100 mg/kg
measured_metric: Change
In your response, the unit should come after the numeric value.

These recorded examples may help you get a feel for the data.
compound | Change
C[C@]12Cc3cnn(-c4ccccc4)c3C=C1CC[C@@H]1OC3(CC=C12)C(=O)NC(=O)NC3=O | 0%
C[C@]12Cc3cnn(-c4ccc(F)cc4)c3C=C1CC[C@H]1C2=CCCC1c1ccccn1 (some centres undefined) | -64%
CCOC(=O)C1(C(=O)OCC)CCC=C2[C@@H]1CCC1=Cc3c(cnn3-c3ccc(F)cc3)C[C@@]12C | -80%

Attention now turns to another entry.
Query: I would be grateful if you could share the reported Change for CCN1C(=O)N(CC)C(=O)C2(CC=C3[C@H](CCC4=Cc5c(cnn5-c5ccc(F)cc5)C[C@@]43C)O2)C1=O .
Result: -34%

* * *

target_entity: Glucocorticoid receptor (Rattus norvegicus)
Sequence (whole entry): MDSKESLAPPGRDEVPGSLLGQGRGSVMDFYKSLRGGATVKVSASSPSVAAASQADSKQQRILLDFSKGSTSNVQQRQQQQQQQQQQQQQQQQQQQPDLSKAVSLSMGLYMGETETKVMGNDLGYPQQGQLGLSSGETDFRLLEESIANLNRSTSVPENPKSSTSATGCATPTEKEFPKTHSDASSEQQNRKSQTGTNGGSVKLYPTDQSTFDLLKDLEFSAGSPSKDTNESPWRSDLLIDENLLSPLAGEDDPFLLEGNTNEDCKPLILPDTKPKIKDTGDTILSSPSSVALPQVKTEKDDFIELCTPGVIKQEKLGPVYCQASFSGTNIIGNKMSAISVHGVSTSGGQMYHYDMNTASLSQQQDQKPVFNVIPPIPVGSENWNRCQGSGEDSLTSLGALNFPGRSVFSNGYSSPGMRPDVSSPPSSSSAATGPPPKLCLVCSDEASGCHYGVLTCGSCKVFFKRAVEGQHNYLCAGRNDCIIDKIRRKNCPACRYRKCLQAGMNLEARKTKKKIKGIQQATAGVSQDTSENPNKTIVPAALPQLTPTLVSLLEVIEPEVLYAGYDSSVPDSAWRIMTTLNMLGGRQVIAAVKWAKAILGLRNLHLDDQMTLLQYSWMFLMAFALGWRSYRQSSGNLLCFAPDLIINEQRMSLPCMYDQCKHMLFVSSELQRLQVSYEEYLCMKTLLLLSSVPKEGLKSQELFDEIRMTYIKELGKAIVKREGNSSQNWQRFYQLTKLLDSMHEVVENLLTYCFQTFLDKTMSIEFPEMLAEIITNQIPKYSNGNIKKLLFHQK
run_description: In vivo anti-inflammatory activity in the rat, alpha-tocopherol filled pouch peroral dose
Type: functional, organism-based
measured_metric: ED50 (mg/kg)
Reply with just the number (in mg/kg).

molecule | quantitative_readout
CN1C(=O)N(C)C(=O)C2(CC=C3[C@H](CCC4=Cc5c(cnn5-c5ccc(F)cc5)C[C@@]43C)O2)C1=O (stereo in doubt; 12a) | 2

Query: I would be grateful if you could share the reported ED50 for C[C@]12Cc3cnn(-c4ccc(F)cc4)c3C=C1CC[C@@H]1OC3(CC=C12)C(=O)c1ccccc1C3=O .
Result: 10

Query: I would be grateful if you could share the reported ED50 for C[C@]12Cc3cnn(-c4ccc(F)cc4)c3C=C1CC[C@@H]1OC3(CC=C12)C(=O)NC(=O)NC3=O .
Result: 4

Query: I would be grateful if you could share the reported ED50 for C[C@]12CCC(=O)C=C1CC[C@@H]1[C@@H]2[C@@H](O)C[C@@]2(C)[C@H]1CC[C@]2(O)C(=O)CO .
Result: 18

Query: I would be grateful if you could share the reported ED50 for C[C@H]1C[C@@H]2[C@H]([C@@H](O)C[C@@]3(C)[C@H]2CC[C@]3(O)C(=O)CO)[C@@]2(C)C=CC(=O)C=C12 .
Result: 2
